system: HGT-1 cells; test: Intracellular pH / proton secretion of HGT-1 cell cultures (SNARF-1-AM dye); assay type: cell-based, human; settings: 0.03 mM substance of group (a) in combination with 3 mM caffeine, 10 minutes
Examples of compounds with documented T/C [%], percentage increase of the proton secretion compared to untreated controls follow.
State the answer as a number, implicitly in %.

O=C1OC[C@@H](Cc2cccc(O)c2)[C@@H]1Cc1cccc(O)c1 | 23.41
O=C1CC(c2ccc(O)c(O)c2)Oc2cc(O)cc(O)c21 (centres unmarked) | 29.69
COc1cc(C2CC(=O)c3c(O)cc(O)cc3O2)ccc1O (centres unmarked) | 37.99
COc1cc(C[C@H]2CO[C@H](c3ccc(O)c(OC)c3)[C@H]2CO)ccc1O | 46.40

Qu. Please give the measured T/C [%], percentage increase of the proton secretion compared to untreated controls for this compound: COc1cc(C[C@H]2COC(=O)[C@@H]2Cc2ccc(O)c(OC)c2)ccc1O
Ans. 14.39
